biological target: DR5 (immobilised on the QCM sensor chip) (UniProt O14763 56-440); assay: 27 MHz quartz crystal microbalance (QCM); DR5 immobilised by EDC/NHS on a 3,3'-dithiodipropionic acid layer on the Au electrode, blocked with ethanolamine; analytes added in PBS, 25°C; apparent constants from the decrease in frequency, 1:1 complexation assumed, Kd = 1/Kapp; details: both partners purified
Where no end group is shown, it is not given here.
measurement kind: Kd

Q: What does the record list as Kd for KKGG (other, also: joined to a cyclometalated Ir(III) complex, cationic peptide H2N-KKGG- on the Ir complex) [Ir complex 2c (contains a KKGG peptide)] ?
A: > 100 µM
